test_name: S16 Schwann cell viability assay (CellTiter-Glo assay) (AID 624031); further: nearly all actives have a fitted effect of over 70% in size
particulars: S16 rat Schwann cells viability, 24 h; series mostly up to 57.5 µM
Inconclusive results are not listed. Calls of active or inactive are those of the source. The call rests on the fitted dose curve; in most records, active means well fitted cell-killing curve with a large enough effect; inconclusive means small, poorly fitted or top-dose-only effect, or effect the other way; inactive means flat fitted curve, though single readings scatter.
Lab note: assign the record to one of yes for active, no for inactive

Below, 5 compounds whose answers are already recorded.
- CC(=O)c1ccc2c(c1)N(CCCN1CCN(CCO)CC1)c1ccccc1S2: yes
- C=CC[N+]1([C@H]2C[C@H]3[C@@H]4CC[C@H]5C[C@H](O)[C@@H](N6CCOCC6)C[C@]5(C)[C@H]4CC[C@]3(C)[C@H]2OC(C)=O)CCCC1: no
- CN=C1C=CC(=C(c2ccc(N(C)C)cc2)c2ccc(N(C)C)cc2)C=C1: yes
- N[C@H](CC(=O)O)C(=O)O: no
- O=C(O)CC/C=C\CC[C@@H]1[C@@H](N2CCCCC2)[C@@H](O)C[C@@H]1OCc1ccc(-c2ccccc2)cc1: no

q: Hi, do you know how CCCCC(CC)COS(=O)(=O)O (stereo unspecified) came out in this test?
a: no

q: Quick one: FC(F)(F)C(F)(F)C(F)(F)C(F)(F)C(F)(F)C(F)(F)F
a: no

q: Quick one: OC1OC[C@@H](O)[C@H](O)[C@@H]1O (stereo partly specified)
a: no

q: Quick one: CC(C)Cc1ccc([C@@H](C)C(=O)NS(C)(=O)=O)cc1
a: no

q: Quick one: CC(C)(COP(=O)(O)OP(=O)(O)OC[C@H]1O[C@@H](n2cnc3c(N)ncnc32)[C@H](O)[C@@H]1OP(=O)(O)O)C(O)C(=O)NCCC(=O)NCCS (stereo partly specified)
a: no

q: Quick one: NCC[C@H](O)C(=O)N[C@@H]1C[C@H](N)[C@@H](O[C@H]2O[C@H](CN)CC[C@H]2N)[C@H](O)[C@H]1O[C@H]1O[C@H](CO)[C@@H](O)[C@H](N)[C@H]1O
a: no

q: Quick one: O=P(O)(O)OP(=O)(O)O
a: no

q: Quick one: O=S(=O)(O)CCCS(=O)(=O)O
a: no

q: Quick one: CN1c2c(nc(N)[nH]c2=O)NCC1CNc1ccc(C(=O)NC(CCC(=O)O)C(=O)O)cc1 (stereo unspecified)
a: no

q: Quick one: O=C(CCCCCCCCCCCCC1CCCC1)Nc1ccc(S(=O)(=O)c2ccc(NC(=O)CCCCCCCCCCCCC3CCCC3)cc2)cc1
a: no

q: Quick one: C=CC(C)(O)CC/C=C(\C)CCC=C(C)C (stereo unspecified)
a: no

q: Quick one: OCC1(CO)COC(C(Cl)(Cl)Cl)OC1
a: no

q: Quick one: Cc1cccc(Nc2ncccc2C(=O)O)c1C
a: no

q: Quick one: O=C(OC1C[C@@H]2CC3C[C@H](C1)N2CC3=O)c1c[nH]c2ccccc12 (stereo partly specified)
a: no

q: Quick one: CC(=O)NCCCS(=O)(=O)O
a: no

q: Quick one: O[C@@H]([C@H](O)[C@H](O)CBr)[C@H](O)CBr
a: no

q: Quick one: O=C(O)COc1ccccc1/C=N/NC(=O)c1ccncc1
a: no

q: Quick one: CC1(O)CCC(C(C)(C)O)CC1 (stereo unspecified)
a: no

q: Quick one: O=P(O)(O)CP(=O)(O)O
a: no

q: Quick one: COC(=O)c1ccccc1O
a: no

q: Quick one: CCN(CC)CCOC(=O)c1cccnc1
a: no

Cited source for all entries: PubChem BioAssay (NCATS)
